experiment: Solubility in organic solvents and water; type: physicochemical; conditions: acetone, organic solvent or mixture, Acetone; r.t.; read-out: Solubility
property name: Solubility

Quick one: give measured Solubility for C=CC(=O)Nc1cc(Nc2nccc(Nc3cc(Cl)c(F)cc3C(C)(C)O)n2)c(OC)cc1N1CC[C@@H](N(C)C)C1 [Form A] 5120 to 5690 µg/mL

---

target: EGFR Wildtype (Homo sapiens); construct: Form A and B in vitro cell based assay; endogenous in cells; host or cells: A431; test: In vitro cell based assay, PD IC50, A431
Sequence (P00533 25-1210): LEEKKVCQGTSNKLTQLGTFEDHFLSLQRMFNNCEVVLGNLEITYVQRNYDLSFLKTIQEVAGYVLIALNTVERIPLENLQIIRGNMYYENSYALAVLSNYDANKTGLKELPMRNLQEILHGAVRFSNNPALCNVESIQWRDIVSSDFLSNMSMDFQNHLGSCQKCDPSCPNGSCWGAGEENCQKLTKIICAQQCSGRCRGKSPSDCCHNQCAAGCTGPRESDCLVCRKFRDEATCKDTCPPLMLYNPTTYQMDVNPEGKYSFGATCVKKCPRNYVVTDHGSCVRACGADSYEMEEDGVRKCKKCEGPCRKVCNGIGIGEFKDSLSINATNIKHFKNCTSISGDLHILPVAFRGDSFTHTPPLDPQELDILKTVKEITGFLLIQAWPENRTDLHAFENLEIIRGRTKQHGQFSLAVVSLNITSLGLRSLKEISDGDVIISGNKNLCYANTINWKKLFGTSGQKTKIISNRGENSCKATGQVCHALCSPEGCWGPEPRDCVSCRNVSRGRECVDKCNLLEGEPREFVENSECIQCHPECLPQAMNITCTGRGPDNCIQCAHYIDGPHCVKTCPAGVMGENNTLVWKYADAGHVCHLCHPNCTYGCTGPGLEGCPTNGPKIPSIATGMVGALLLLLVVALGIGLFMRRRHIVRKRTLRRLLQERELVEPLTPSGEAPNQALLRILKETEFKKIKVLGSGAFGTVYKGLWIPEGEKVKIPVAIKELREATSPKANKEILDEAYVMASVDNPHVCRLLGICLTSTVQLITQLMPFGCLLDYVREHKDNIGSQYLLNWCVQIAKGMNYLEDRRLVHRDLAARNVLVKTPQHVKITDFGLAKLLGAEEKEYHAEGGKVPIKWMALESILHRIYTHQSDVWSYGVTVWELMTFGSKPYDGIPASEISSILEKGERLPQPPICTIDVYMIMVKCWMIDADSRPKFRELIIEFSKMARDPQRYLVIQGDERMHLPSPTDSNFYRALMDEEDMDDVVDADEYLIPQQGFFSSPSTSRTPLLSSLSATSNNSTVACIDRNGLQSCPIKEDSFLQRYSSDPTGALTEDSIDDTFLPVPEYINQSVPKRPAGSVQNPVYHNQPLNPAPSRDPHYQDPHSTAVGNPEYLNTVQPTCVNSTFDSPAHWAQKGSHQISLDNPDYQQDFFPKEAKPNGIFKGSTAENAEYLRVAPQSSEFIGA
property name: pIC50
# reply with the number alone; pIC50 is -log10 of concentration in mol/L

[[record]]
molecule = "C=CC(=O)Nc1cc(Nc2nccc(Nc3cc(Cl)c(F)cc3C(C)(C)O)n2)c(OC)cc1N1CC[C@@H](N(C)C)C1 [Form B]"
property_name = "pIC50"
observed_measurement = 7.27


Continue with the next molecule.
Quick one: give measured pIC50 for C=CC(=O)Nc1cc(Nc2nccc(Nc3cc(Cl)c(F)cc3C(C)(C)O)n2)c(OC)cc1N1CC[C@@H](N(C)C)C1 [Form A] 7.37
